Each entry below carries its recorded Emax.
- Target under test: human PPARγ (Homo sapiens, UniProt P37231)
- Construct: expressed in transfected cells; host or cells: COS-7
- Sequence (P37231 238-503 limits assumed): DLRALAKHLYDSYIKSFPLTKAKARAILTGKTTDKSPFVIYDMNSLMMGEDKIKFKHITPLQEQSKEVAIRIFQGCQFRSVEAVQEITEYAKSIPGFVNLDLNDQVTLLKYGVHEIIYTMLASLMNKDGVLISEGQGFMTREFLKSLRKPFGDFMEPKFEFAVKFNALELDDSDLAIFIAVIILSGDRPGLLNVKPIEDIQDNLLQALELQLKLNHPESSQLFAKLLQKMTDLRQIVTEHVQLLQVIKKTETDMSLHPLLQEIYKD
- Test description: Transactivation assay (GAL4–hPPARγ-LBD chimera, luciferase reporter, COS-7 cells)
- Assay type: cell-based
- Condition: 100% = 1 µM GW1929, read-out: Efficacy, PPARγ transactivation (% of the maximal response)

>  <Compound>
CCO[C@H](COc1ccc(C(F)(F)F)cc1)CSc1ccc(OCC(=O)O)c(C)c1 [seladelpar]

>  <Emax / %>
58.5

$$$$
>  <Compound>
CCO[C@@H](Cc1ccc(OCCn2c(C)ccc2-c2ccc(SC)cc2)cc1)C(=O)O [saroglitazar]

>  <Emax / %>
89.4

$$$$
>  <Compound>
CSc1ccc(C(=O)/C=C/c2cc(C)c(OC(C)(C)C(=O)O)c(C)c2)cc1 [elafibranor]

>  <Emax / %>
38.5

$$$$
>  <Compound>
O=C(O)CCCc1cc2cc(Cl)ccc2n1S(=O)(=O)c1ccc2ncsc2c1 [lanifibranor]

>  <Emax / %>
24.9

$$$$

* * *

Below, each entry is listed alongside its reported EC50.
- Target under test: PPARα-LBD (Homo sapiens, UniProt Q07869)
- Sequence (Q07869 200-468): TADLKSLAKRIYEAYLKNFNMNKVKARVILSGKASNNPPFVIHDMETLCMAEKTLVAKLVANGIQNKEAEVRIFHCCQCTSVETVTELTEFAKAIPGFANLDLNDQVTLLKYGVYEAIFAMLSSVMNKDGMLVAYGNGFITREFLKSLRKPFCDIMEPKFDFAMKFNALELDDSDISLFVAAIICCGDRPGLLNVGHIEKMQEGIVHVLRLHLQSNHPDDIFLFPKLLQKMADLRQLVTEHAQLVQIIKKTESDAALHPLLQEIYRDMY
- Test description: TR-FRET SRC1 coactivator recruitment assay
- Type: biochemical
- Set-up: Human PPARα-LBD (amino acids 200–468); made in house; host or cells: Rosetta (DE3) pLysS (E. coli)
- Condition: TR-FRET; SRC1 peptide; read-out: EC50, SRC1 recruitment to PPARα-LBD
Endpoint: EC50

>  <Molecular string>
CCO[C@@H](Cc1ccc(OCCn2c(C)ccc2-c2ccc(SC)cc2)cc1)C(=O)O

>  <Target under test>
PPARα-LBD (Homo sapiens, UniProt Q07869)

>  <Observed measurement>
1.04 µM

$$$$
>  <Molecular string>
CCO[C@H](COc1ccc(C(F)(F)F)cc1)CSc1ccc(OCC(=O)O)c(C)c1

>  <Target under test>
PPARα-LBD (Homo sapiens, UniProt Q07869)

>  <Observed measurement>
> 1 µM

$$$$
>  <Molecular string>
O=C(O)CCCc1cc2cc(Cl)ccc2n1S(=O)(=O)c1ccc2ncsc2c1

>  <Target under test>
PPARα-LBD (Homo sapiens, UniProt Q07869)

>  <Observed measurement>
13.8 µM

$$$$
>  <Molecular string>
CSc1ccc(C(=O)/C=C/c2cc(C)c(OC(C)(C)C(=O)O)c(C)c2)cc1

>  <Target under test>
PPARα-LBD (Homo sapiens, UniProt Q07869)

>  <Observed measurement>
4.95 µM

$$$$

* * *

- Target under test: human PPARα (Homo sapiens)
- Test description: Transactivation assay (GAL4–hPPARα-LBD chimera, luciferase reporter, COS-7 cells)
- Condition: GAL4–hPPARα-LBD
pEC50: −log10 of the molar value.
Recorded measurements of pEC50, one per entry

>  <Molecular string>
CCO[C@H](COc1ccc(C(F)(F)F)cc1)CSc1ccc(OCC(=O)O)c(C)c1

>  <Target under test>
human PPARα (Homo sapiens)

>  <pEC50>
5.79

$$$$
>  <Molecular string>
CSc1ccc(C(=O)/C=C/c2cc(C)c(OC(C)(C)C(=O)O)c(C)c2)cc1

>  <Target under test>
human PPARα (Homo sapiens)

>  <pEC50>
6.41

$$$$
>  <Molecular string>
CCO[C@@H](Cc1ccc(OCCn2c(C)ccc2-c2ccc(SC)cc2)cc1)C(=O)O

>  <Target under test>
human PPARα (Homo sapiens)

>  <pEC50>
6.72

$$$$
>  <Molecular string>
O=C(O)CCCc1cc2cc(Cl)ccc2n1S(=O)(=O)c1ccc2ncsc2c1

>  <Target under test>
human PPARα (Homo sapiens)

>  <pEC50>
5.33

$$$$

The origin of these recorded values is paper PMC10451623.
